B1: TPR t1 (parent)
chain: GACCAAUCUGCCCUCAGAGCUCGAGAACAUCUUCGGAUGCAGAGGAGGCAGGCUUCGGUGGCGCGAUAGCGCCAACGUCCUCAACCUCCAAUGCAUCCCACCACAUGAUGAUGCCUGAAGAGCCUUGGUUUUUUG

variants of: B1; assay: polymerase ribozyme fitness, log enrichment relative to wild type (log ratio); higher = more active; in vitro selection for triplet polymerase activity
Is polymerase ribozyme fitness (log ratio) at least -4? Then label 1. If not, label 0.

{"mutation notation": "C28U G61A C64U A121C", "class name": "label 0"}

Qu. Decide: is the reported value of polymerase ribozyme fitness (log ratio) for C22A G48U C56U equal to or greater than -4?
Ans. label 0

These measurements were taken from the RNAGym collection of RNA variant scans (doi:10.1073/pnas.2313332121).
